Each recorded value in this set is attributed to PubChem BioAssay AID504408.

# assay: HSF-1 activators, primary screen, NIH3T3-HGL cells, MG132 stress, luminescence, single point (AID 504408);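 also: 0% = median of the neutral control wells and 100% = twice that signal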
# test-conditions: NIH3T3-HGL HSF-1 luciferase reporter, MG132, 8 h; at 9 µM; stronger effect = higher value; 100% = twice DMSO control signal
Out of some 300,000 compounds screened, about 5,200 (1.7%) were called active. The full list was thinned out, with actives kept by preference.
This section presents molecules with their documented activation values.

molecule	activation
COCCCn1c(SCC(=O)Nc2oc(C)c3c(C)n[nH]c(=O)c23)nc2sc3c(c2c1=O)CCC3	0.458% (inactive)
CCOC(=O)C(C)n1cnc2sc(C)c(C)c2c1=O (stereo not drawn)	6.07% (inactive)
COc1ccc(NC(=O)CN(C)C(=O)CC2CCCCC2)cc1	0.174% (inactive)
CCCNC(=O)CCn1cc(-c2ccc(OC)cc2)nc1CCN	-10.4% (inactive)
COc1ccccc1C(=O)NCCC(=O)NC(C)CCc1ccccc1 (stereo not drawn)	0.822% (inactive)
Cc1c(C(=O)OCC(=O)N2CCCC2=O)oc2ccccc12	16.8% (inactive)
O=C(Cc1ccc(Br)cc1)NCCc1ccccc1	18.4% (inactive)
S=C(Nc1cccc(Cl)c1)Nc1ccc2c(c1)OCCO2	5.58% (inactive)
COc1ccc(C(=O)CN2C(=O)NC3(CCc4ccccc43)C2=O)c(OC)c1 (stereo not drawn)	-14% (inactive)
CN(C(=O)CN1C(=O)NC(C)(CCc2ccccc2)C1=O)c1ccccc1 (stereo not drawn)	5.79% (inactive)
CCOC(=O)C(C(=O)OCC)C(C#N)c1ccccc1 (stereo not drawn)	14.7% (inactive)
CSc1ccc(S(=O)(=O)NCC(=O)OCC(=O)NC2(C#N)CCCCC2)cc1[N+](=O)[O-]	1.77% (inactive)
S=C(Nc1cccc(Cl)c1)Nc1ccc2cn[nH]c2c1	20.2% (inactive)
COc1ccc(/C=N/NC(=O)c2cc(-c3cccc(C)c3)nc3ccccc23)cc1O	11.4% (inactive)
O=C(Cc1ccc(S(=O)(=O)N2CCOCC2)s1)NCCOc1ccccc1F	3.3% (inactive)
CCS(=O)(=O)c1ccc(-c2cccc(NC(=O)c3ccc(Br)o3)c2)nn1	-23.4% (inactive)
Cc1c(C(N)=O)sc2ncn(CCOc3ccccc3)c(=O)c12	58.5% (active)
Cc1cccc(OC(=O)c2sc3ncn(C)c(=O)c3c2C)c1	17.3% (inactive)
c1c2c(cc3sc(N4CCCCC4)nc13)OCCO2	-56.8% (inactive)
Cc1ccc2nc(N3CCN(C(=O)c4ccco4)CC3)sc2c1	12.9% (inactive)
COc1ccc(S(=O)(=O)N2CCOCC2)cc1NC(=O)COc1ccccc1	-3.48% (inactive)
COc1cc(/C=N/NC(=O)c2cc(-c3ccccc3C)nc3ccccc23)cc(OC)c1O	18.6% (inactive)
Cc1csc(NC(=S)Nc2cccc(Cl)c2)n1	58.4% (active)

====

This section presents compounds with their documented activation values.
# assay: HSF-1 activators, primary screen, NIH3T3-HGL cells, MG132 stress, luminescence, single point (AID 504408);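 also: 0% = median of the neutral control wells and 100% = twice that signal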
# test-conditions: NIH3T3-HGL HSF-1 luciferase reporter, MG132, 8 h; at 9 µM; stronger effect = higher value; 100% = twice DMSO control signal
Out of some 300,000 compounds screened, about 5,200 (1.7%) were called active. This excerpt belongs to a sample that is enriched for actives.

compound	activation (%)
Cc1sc2ncnc(N3CCC(C(=O)NNC(=O)c4ccc(F)cc4)CC3)c2c1C	-17.9
O=C1CN(c2nc(-c3ccccc3)c3cc(Br)ccc3n2)c2ccccc2N1	-21.4
COc1ccccc1C(=O)NC(=O)COC(=O)c1ccco1	-0.902
COc1ccc(/C=C(\C#N)C(=O)OCC(=O)N(C)C2CCS(=O)(=O)C2)cc1 (configuration not stated)	-4.8
Cc1cc(Nc2ccc(Br)cc2)nc2ccccc12	0.857
O=S(=O)(c1ccccc1)N1CCC(c2ccccc2)CC1	-26.8
CSCCC(NC(=O)COc1ccccc1)C(=O)OCCOc1ccc(F)cc1 (configuration not stated)	-8.89
O=C(Nc1ccc(Cl)cn1)Nc1cccs1	69.7
O=C(OCCOCn1cc(Br)c(=O)[nH]c1=O)c1ccccc1	-0.69
CCN(CC(=O)Nc1ccc(NC(C)=O)cc1)C(=O)C1CC(=O)N(Cc2ccc(C)cc2)C1 (configuration not stated)	3.94
CCOc1ccc(NS(=O)(=O)c2ccc(C(=O)NC3CCN(Cc4ccccc4)CC3)cc2)cc1	-18.5
CCOc1ccc(S(=O)(=O)N2CCC(C(=O)OCc3ccc(OC)cc3)CC2)cc1	10.2
O=C(Nc1cccc([N+](=O)[O-])c1)Nc1ccc(Cl)cn1	-5.81
S=C1NC(c2ccccc2)=NCN1c1ccc(Br)cc1	55
CCOC(=O)c1c(C)[nH]c(C(=O)OCC(=O)N2CCCC2=O)c1C	16.4
COc1cccc(C2Nc3cccc4cccc(c34)N2)c1	1.58
COc1ccc(-n2nnnc2CNC(=O)c2ccc3ccccc3c2)cc1	3.44
CCCCOC(=O)c1[nH]c(C)c(C(=O)OC)c1C	52.3
COc1ccc2c(c1)C(=O)Nc1cc(Cl)ccc1N2	12.2
Cc1ccc(NC(=O)C(C)OC(=O)Cc2c[nH]c3ccccc23)cc1S(=O)(=O)N1CCOCC1 (configuration not stated)	13
Cn1cccc1C(=O)OCC(=O)c1ccc(Br)s1	-97.9
O=C1[C@H]2[C@@H](c3ccc(Cl)cc3)N3C(=O)N(c4cccc(F)c4)C(=O)[C@@]3(Cc3ccccc3)[C@H]2C(=O)N1C1CCCCC1	-0.394
